Source: patent US7163946B2

Biological target: hPR (Homo sapiens, UniProt P06401)
Sequence (P06401 679-933 limits assumed): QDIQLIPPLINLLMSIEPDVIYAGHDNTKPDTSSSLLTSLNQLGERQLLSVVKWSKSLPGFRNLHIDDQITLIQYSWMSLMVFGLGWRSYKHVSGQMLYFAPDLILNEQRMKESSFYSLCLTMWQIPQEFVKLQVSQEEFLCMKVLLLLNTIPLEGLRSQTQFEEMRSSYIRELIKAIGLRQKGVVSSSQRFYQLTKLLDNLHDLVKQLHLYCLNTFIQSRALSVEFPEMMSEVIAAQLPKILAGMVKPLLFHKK
Assay: T47D alkaline phosphatase assay, antagonist mode
Assay type: cell-based
Details: T47D human breast cancer cells; read-out: hPR Antagonists T47D Cells Eff. (%)
Mark not met for Emax values under 50%, and met for everything at or above.

Has COC1Oc2c(F)cc(F)cc2-c2ccc3c(c21)C(C)=CC(C)(C)N3 (racemic) a recorded Emax greater than or equal to 50%?
not met

Say whether CC1=CC(C)(C)Nc2ccc3c(c21)C(c1cccc(C)c1)Oc1c(F)cc(F)cc1-3 (racemic) shows Emax of 50% or more.
not met

I'd appreciate it if you could say whether CC(=O)[C@H]1CC[C@H]2[C@@H]3CCC4=CC(=O)CC[C@]4(C)[C@H]3CC[C@]12C [Prog., progesterone, reference compound] has Emax at least equal to 50%.
not met

# bool: Emax of CC1=CC(C)(C)Nc2ccc3c(c21)/C(=C/C#N)Oc1c(F)cc(F)cc1-3 >= 50%
not met

Identify whether the reported Emax of the following compound is 50% or greater: CN(C)c1ccc([C@H]2C[C@]3(C)[C@@H](CC[C@]3(O)CCCO)[C@@H]3CCC4=CC(=O)CCC4=C32)cc1 [ZK299, reference compound]
met

Form field: Emax at least 50%? Entry: CC1=CC(C)(C)Nc2ccc3c(c21)/C(=C/c1cc(F)ccc1C)Oc1c(F)cc(F)cc1-3
not met

Is Emax for CC1=CC(C)(C)Nc2ccc3c(c21)/C(=C/c1cccc(F)c1)Oc1c(F)cc(F)cc1-3 at or above 50%?
met

Can CC1=CC(C)(C)Nc2ccc3c(c21)C(c1ccc(Cl)c(C)c1)Oc1c(F)cc(F)cc1-3 (racemic) [Compound 37] be said to have Emax at or above 50%?
met

Decide: Emax of CC1=CC(C)(C)Nc2ccc3c(c21)/C(=C/Br)Oc1c(F)cc(F)cc1-3 >= 50%?
not met

Given CC#CC1Oc2c(F)cc(F)cc2-c2ccc3c(c21)C(C)=CC(C)(C)N3 (racemic) , state whether its Emax is at least 50%.
not met

###

What IC50 was measured for each of the following?
Target: hPR (Homo sapiens)
Test: T47D alkaline phosphatase assay, antagonist mode
Type: cell-based
Conditions: T47D human breast cancer cells; read-out: hPR Antagonists T47D Cells IC50

Give recorded IC50 with hPR (Homo sapiens) for the following molecule: COC1Oc2c(F)cc(F)cc2-c2ccc3c(c21)C(C)=CC(C)(C)N3 (racemic)
250 nM

Could you share what IC50 was measured for COc1ccccc1/C=C1\Oc2c(F)cc(F)cc2-c2ccc3c(c21)C(C)=CC(C)(C)N3 , tested on hPR (Homo sapiens)?
55 nM

Provide the documented IC50 with hPR (Homo sapiens) as the system for CC1=CC(C)(C)Nc2ccc3c(c21)C(CC(=O)c1ccccc1)Oc1c(F)cc(F)cc1-3 (racemic)
> 10000 nM

What is its IC50 for hPR (Homo sapiens)? Entry: CC1=CC(C)(C)Nc2ccc3c(c21)/C(=C/C#N)Oc1c(F)cc(F)cc1-3
830 nM

###

Target: hPR (Homo sapiens, UniProt P06401)
Test: T47D alkaline phosphatase assay, antagonist mode
Type: cell-based
Conditions: T47D human breast cancer cells; read-out: hPR Antagonists T47D Cells IC50
value_kind: IC50

Query (compound): C#C[C@]1(O)CC[C@H]2[C@@H]3CCC4=CC(=O)CC[C@@H]4[C@H]3C(=C)C[C@@]21CC [3-ketodesogestrel, reference compound] ; field requested: IC50
> 10000 nM

IC50 for CC1=CC(C)(C)Nc2ccc3c(c21)/C(=C/Br)Oc1c(F)cc(F)cc1-3 [Compound 29] ?
170 nM

Find the recorded IC50 belonging to CC1=CC(C)(C)Nc2ccc3c(c21)/C(=C/c1cccs1)Oc1c(F)cc(F)cc1-3 [Compound 31] and report it.
610 nM

Consider the compound CC1=CC(C)(C)Nc2ccc3c(c21)/C(=C/c1cc(F)ccc1F)Oc1c(F)cc(F)cc1-3 [Compound 17] and give its measured IC50.
389 nM

###

Molecular target: hPR (Homo sapiens, UniProt P06401)
Experiment: T47D alkaline phosphatase assay, agonist mode
Assay type: cell-based
Conditions: T47D, T47D human breast cancer cells; read-out: hPR Agonist T47D cells Eff. (%)
Consider the following compounds; for each one, report its Emax.

Given the entry CN(C)c1ccc([C@H]2C[C@]3(C)[C@@H](CC[C@]3(O)CCCO)[C@@H]3CCC4=CC(=O)CCC4=C32)cc1 [ZK299, reference compound] , report its measured Emax.
< 20%

Emax lookup needed for CC1=CC(C)(C)Nc2ccc3c(c21)/C(=C/c1ccccc1)Oc1c(F)cc(F)cc1-3 [Compound 10] , thanks.
54%

Entry under review: CC1=CC(C)(C)Nc2ccc3c(c21)/C(=C/c1ccncc1C)Oc1c(F)cc(F)cc1-3 [Compound 20] . Reported Emax?
63%

So what does the record say about Emax for CC1=CC(C)(C)Nc2ccc3c(c21)C(c1ccccc1)Oc1c(F)cc(F)cc1-3 (racemic) [Compound 33] ?
62%

###

Please go through the items and note down their pKi.
Biological target: hPR-A (Homo sapiens, UniProt P06401)
Sequence (P06401 1-769 isoform P06401-2): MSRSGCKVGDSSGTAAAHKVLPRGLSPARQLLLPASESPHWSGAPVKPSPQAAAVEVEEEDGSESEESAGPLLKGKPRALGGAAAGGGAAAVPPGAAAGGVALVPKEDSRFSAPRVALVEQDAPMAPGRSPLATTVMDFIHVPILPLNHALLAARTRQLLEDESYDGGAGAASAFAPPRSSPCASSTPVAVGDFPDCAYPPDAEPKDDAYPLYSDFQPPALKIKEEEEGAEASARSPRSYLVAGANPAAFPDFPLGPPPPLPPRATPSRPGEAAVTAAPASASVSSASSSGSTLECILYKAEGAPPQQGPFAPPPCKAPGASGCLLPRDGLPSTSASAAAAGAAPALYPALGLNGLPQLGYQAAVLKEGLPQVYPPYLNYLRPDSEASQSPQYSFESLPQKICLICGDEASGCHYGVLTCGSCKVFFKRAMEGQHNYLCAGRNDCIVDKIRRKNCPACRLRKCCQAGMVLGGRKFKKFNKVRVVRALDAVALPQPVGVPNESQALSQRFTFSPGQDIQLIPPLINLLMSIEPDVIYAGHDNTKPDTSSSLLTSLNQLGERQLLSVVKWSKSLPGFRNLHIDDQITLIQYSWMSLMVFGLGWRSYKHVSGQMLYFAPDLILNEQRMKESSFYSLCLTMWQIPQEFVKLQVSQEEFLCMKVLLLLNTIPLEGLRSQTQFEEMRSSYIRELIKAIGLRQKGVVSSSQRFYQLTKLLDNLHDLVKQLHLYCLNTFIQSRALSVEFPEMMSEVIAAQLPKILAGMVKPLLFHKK
Quick note: pKi means taking -log10 of the concentration in moles per liter.

pKi for COc1ccc(F)cc1/C=C1\Oc2c(F)cc(F)cc2-c2ccc3c(c21)C(C)=CC(C)(C)N3 ?
8.05

# lookup: pKi of CC1=CC(C)(C)Nc2ccc3c(c21)/C(=C/c1ccccc1)Oc1c(F)cc(F)cc1-3
8.17

I have this molecule here, CC1=CC(C)(C)Nc2ccc3c(c21)C(c1cc2ccccc2s1)Oc1c(F)cc(F)cc1-3 (racemic) , and I need its recorded pKi.
8.19

###

Biological target: hPR (Homo sapiens)
Assay: hPR cotransfection assay in CV-1 cells, antagonist mode
Assay type: cell-based
Details: CV-1 cells
Sequence (P06401 whole entry): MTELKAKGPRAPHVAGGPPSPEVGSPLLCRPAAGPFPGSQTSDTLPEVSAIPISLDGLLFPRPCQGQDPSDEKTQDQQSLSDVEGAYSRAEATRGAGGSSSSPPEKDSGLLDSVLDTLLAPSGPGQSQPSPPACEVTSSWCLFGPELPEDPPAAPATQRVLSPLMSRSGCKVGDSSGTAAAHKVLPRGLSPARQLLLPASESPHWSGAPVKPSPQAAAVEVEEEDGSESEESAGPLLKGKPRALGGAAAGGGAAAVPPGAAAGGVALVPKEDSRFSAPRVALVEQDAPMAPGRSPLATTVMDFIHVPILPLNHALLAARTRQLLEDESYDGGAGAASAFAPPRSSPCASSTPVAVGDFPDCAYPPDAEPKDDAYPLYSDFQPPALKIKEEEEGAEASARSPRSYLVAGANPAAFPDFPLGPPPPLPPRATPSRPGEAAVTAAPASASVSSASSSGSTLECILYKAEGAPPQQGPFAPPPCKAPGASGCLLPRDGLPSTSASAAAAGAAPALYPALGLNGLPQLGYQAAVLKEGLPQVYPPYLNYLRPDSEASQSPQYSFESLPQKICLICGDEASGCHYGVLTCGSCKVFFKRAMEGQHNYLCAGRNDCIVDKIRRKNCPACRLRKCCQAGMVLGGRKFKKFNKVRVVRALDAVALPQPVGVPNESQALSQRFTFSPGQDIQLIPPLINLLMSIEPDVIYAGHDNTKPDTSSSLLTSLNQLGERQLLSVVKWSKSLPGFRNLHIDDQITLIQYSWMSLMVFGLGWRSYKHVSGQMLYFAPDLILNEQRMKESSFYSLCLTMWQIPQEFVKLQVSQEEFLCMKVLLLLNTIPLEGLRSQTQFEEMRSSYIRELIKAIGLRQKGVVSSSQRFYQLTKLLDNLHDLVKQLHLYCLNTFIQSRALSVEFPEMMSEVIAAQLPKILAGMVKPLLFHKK
pIC50: −log10 of the molar value.
Please respond with reported pIC50 for every item in the list.

Look up pIC50 for this molecule: CC1=CC(C)(C)Nc2ccc3c(c21)/C(=C/C#N)Oc1c(F)cc(F)cc1-3
< 5.00

Need pIC50 of CC1=CC(C)(C)Nc2ccc3c(c21)C(c1ccc(Cl)c(C)c1)Oc1c(F)cc(F)cc1-3 (single isomer, unassigned; (+)) [Compound 39] , thanks.
7.62

// query pIC50 value for entry CC1=CC(C)(C)Nc2ccc3c(c21)/C(=C/c1ccncc1C)Oc1c(F)cc(F)cc1-3
< 5.00

###

Target: hPR (Homo sapiens)
Experiment: hPR cotransfection assay in CV-1 cells, agonist mode
Assay type: cell-based
Conditions: Tables 3 and 4, values without footnote; read-out: hPR agonist potencies (EC50 in nM) in the cotransfection assay
value_kind: EC50 (nM)
Could you give me the number in nM? Just the number is fine.

Record C=CCC1Oc2ccc(F)cc2-c2ccc3c(c21)C(C)=CC(C)(C)N3 (centres unmarked) [Formula I X=9-F Allyl, reference compound] : what is its EC50 with hPR (Homo sapiens)?
7.5

Please state recorded EC50 (tested on hPR (Homo sapiens)) of CC1=CC(C)(C)Nc2ccc3c(c21)/C(=C/c1ccccc1C)Oc1cc(F)ccc1-3 [Formula II X=8-F 2-Me-Ph, reference compound]
13

What value of EC50 on hPR (Homo sapiens) does CC1=CC(C)(C)Nc2ccc3c(c21)/C(=C/c1ccccc1C)Oc1cc(F)c(F)cc1-3 [Formula II X=8,9-diF 2-Me-Ph, reference compound] have?
13

What measured EC50 is associated with CC1=CC(C)(C)Nc2ccc3c(c21)/C(=C/c1ccc(F)cc1)Oc1c(F)cc(F)cc1-3 on hPR (Homo sapiens)?
3.7

// fetch hPR (Homo sapiens) EC50 for CC1=CC(C)(C)Nc2ccc3c(c21)C(c1ccccc1)Oc1c(F)cc(F)cc1-3 (racemic)
3.5

Fill in the recorded EC50 for this compound, with hPR (Homo sapiens) as test system: CC1=CC(C)(C)Nc2ccc3c(c21)C(c1cccc(Cl)c1)Oc1c(F)cc(F)cc1-3 (racemic)
1.87

Which measured EC50 belongs to CC1=CC(C)(C)Nc2ccc3c(c21)/C(=C/c1cccc(F)c1C)Oc1ccc(F)cc1-3 [Formula II X=9-F 2-Me-3-F-Ph, reference compound] , tested on hPR (Homo sapiens)?
8.4

Enter reported EC50 observed with hPR (Homo sapiens) for CC1=CC(C)(C)Nc2ccc3c(c21)/C(=C/c1ccccc1F)Oc1c(F)cc(F)cc1-3
2.55

# returns recorded EC50 (system: hPR (Homo sapiens)) for CC1=CC(C)(C)Nc2ccc3c(c21)C(c1ccc(Cl)c(C)c1)Oc1ccc(Cl)cc1-3 (centres unmarked) [Formula I X=9-Cl 4-Cl-3-Me-Ph, reference compound]
9.4

Field: EC50 (hPR (Homo sapiens)). Entry: COc1ccc2c(c1)O/C(=C\c1ccncc1)c1c-2ccc2c1C(C)=CC(C)(C)N2 [Formula II X=8-OMe 4-pyridinyl, reference compound]
36

Fill in the recorded EC50 for this compound, with hPR (Homo sapiens) as test system: COc1ccc2c(c1)O/C(=C\c1ccccc1F)c1c-2ccc2c1C(C)=CC(C)(C)N2 [Formula II X=8-OMe 2-F-Ph, reference compound]
45
